Molecular target: SARS-CoV-2 spike receptor-binding domain (RBD) (SARS-CoV-2, UniProt P0DTC2 319-541)
Experiment: indirect ELISA, RBD coated on plate, 4PL fit
attribute.measured: ELISA affinity

(Q) Fill in the blank: the reported ELISA affinity of Nb90 (VHH) VHH: HVQLVESGGGLVQAGGSLRLSCAVSGRTVSSYVMGWFRQAPGKEREFVAGIGRTGMTITADSVKGRFTISRDNAKNLVYLQMNSLKSEDTAVYWCAAGVRDFAPRIDSYDYWGQGTQVTVSS is ____.
(A) 4.03 nM

(Q) Fill in the blank: the reported ELISA affinity of Nb15 (VHH) VHH: EVQLVESGGGLVAAGGSLRLSCVPSTNIFSANAMGWYRQAPGKQRELVASITSGGNTNYADSVKGRFTISRDNADTVILQMNSLKPEDTAVYYCKGTAYSTTYNSVRDYWGQGTQVTVSS is ____.
(A) 0.47 nM

(Q) Fill in the blank: the reported ELISA affinity of Nb16 (VHH) VHH: DVQLVESGGGLVQAGESLRLSCAASGDMFSSNAMAWYRQAPGKQRELVASITSGGNTNYADSVKGRFTISRDNAKNTVYLQMDSLKPEDTAVYYCNGVAYDYSWGRPRNFWGQGTQVTVSS is ____.
(A) 0.37 nM

(Q) Fill in the blank: the reported ELISA affinity of Nb64 (VHH) VHH: QVQLVESGGGLVQAGGSLRLSCAVSGRTFSIAGMGWFRQAPGKDREFLGGITWNDGTTWYADSVKGRFTISRDNAKNMLSLRMNSLKPEDTAVYYCAAGPRLGSTPRAYDYWGQGTQVTVSS is ____.
(A) 0.45 nM
